Items are presented alongside their recorded MIC.
Tested on: Pseudomonas aeruginosa ATCC 27853
Type: cell-based
Settings: ATCC 27853, 24 h
Description: All tests were done in triplicate.
Where no end group is shown, it is not given here.
Kindly answer with a numeric value in µg/mL, unit omitted.

{"columns": ["Substance", "MIC [µg/mL]"],
 "data": [
  ["WVKKVARKVVKIGRKVAR-NH2 [A11]", 31.25]
]}

Ask: Reported MIC, substance GVKKVAHKVVKIGRKVAW-NH2 [A6] : ____
Reply: 125

###

Items are presented alongside their recorded MIC.
System: Listeria monocytogenes 10403s
Format: cell-based
Settings: 10403s, 24 h
Where no end group is shown, it is not given here.

// below: answered substances
{"columns": ["Substance", "Assay value"],
 "data": [
  ["GVKKVAHKVVKIGRKVAWGAVSGV-NH2 [A4]", "250 (> 250) µg/ml"],
  ["GVKKVAHKVVKIGRKVAW-NH2 [A6]", "250 (> 250) µg/ml"],
  ["WVKKVARKVVKIGRKVAR-NH2 [A11]", "125 (125) µg/ml"],
  ["GVKKVARKVVKIGRKVAR-NH2 [A9]", "250 (> 250) µg/ml"]
]}

// next entry
Ask: Identify the measured MIC of GNPKVAHCASQIGRSTAWGAVSGA-NH2 [A0, acidocin J1132β, reference compound] for Listeria monocytogenes 10403s.
Reply: > 250 (> 250) µg/ml

###

System: Bacillus cereus ATCC 11778
Format: cell-based
Conditions: ATCC 11778, 24 h
Where no end group is shown, it is not given here.
Property: MIC

// below: answered substances
{"columns": ["Substance", "Measurement target", "MIC"],
 "data": [
  ["GVKKVARKVVKIGRKVAR-NH2 [A9]", "Bacillus cereus ATCC 11778", "> 250 (> 250) µg/ml"],
  ["GVKKVAHKVVKIGRKVAWGAVSGV-NH2 [A4]", "Bacillus cereus ATCC 11778", "> 250 (> 250) µg/ml"],
  ["GNPKVAHCASQIGRSTAWGAVSGA-NH2 [A0, acidocin J1132β, reference compound]", "Bacillus cereus ATCC 11778", "> 250 (> 250) µg/ml"]
]}

// next entry
Ask: Reported MIC, substance GVKKVAHKVVKIGRKVAW-NH2 [A6] : ____
Reply: > 250 (> 250) µg/ml

###

Items are presented alongside their recorded MBC.
System: Salmonella Typhimurium ATCC 13311
Assay type: cell-based, Salmonella enterica serovar Typhimurium
Settings: ATCC 13311, 18 h
Where no end group is shown, it is not given here.

// below: answered substances
{"columns": ["Substance", "MBC"],
 "data": [
  ["GVKKVARKVVKIGRKVAR-NH2 [A9]", "62.5 (62.5) µg/ml"],
  ["GNPKVAHCASQIGRSTAWGAVSGA-NH2 [A0, acidocin J1132β, reference compound]", "> 250 (> 250) µg/ml"]
]}

// next entry
Ask: Reported MBC, substance GVKKVAHKVVKIGRKVAWGAVSGV-NH2 [A4] : ____
Reply: 31.25 (31.25) µg/ml

###

Tested on: Pseudomonas aeruginosa ATCC 27853
Format: cell-based
Conditions: ATCC 27853, 24 h
Where no end group is shown, it is not given here.
Items are presented alongside their recorded MIC.

// below: answered substances
{"columns": ["Substance", "Property", "Assay value"],
 "data": [
  ["GVKKVARKVVKIGRKVAR-NH2 [A9]", "MIC", "250 (250) µg/ml"],
  ["GVKKVAHKVVKIGRKVAWGAVSGV-NH2 [A4]", "MIC", "250 (250) µg/ml"]
]}

Ask: Reported MIC, substance GNPKVAHCASQIGRSTAWGAVSGA-NH2 [A0, acidocin J1132β, reference compound] : ____
Reply: > 250 (> 250) µg/ml
